protocol_notes: physchem
condition_parameters: water, thermodynamic from solid
Structures can show the parent of a compound that is named as a salt.
metric_name: solubility (mg/mL)
Numbers only; they are read as mg/mL.

Qu. Please report the measured solubility for Nc1cccc2c(=O)[nH][nH]c(=O)c12 [Form III, sodium salt]
Ans. 145

Values were extracted from patent US10258620B2.
